assay target: PD-L1 His protein / PD-1 Fc protein (Homo sapiens, UniProt Q9NZQ7)
Sequence (Q9NZQ7 19-238 limits assumed): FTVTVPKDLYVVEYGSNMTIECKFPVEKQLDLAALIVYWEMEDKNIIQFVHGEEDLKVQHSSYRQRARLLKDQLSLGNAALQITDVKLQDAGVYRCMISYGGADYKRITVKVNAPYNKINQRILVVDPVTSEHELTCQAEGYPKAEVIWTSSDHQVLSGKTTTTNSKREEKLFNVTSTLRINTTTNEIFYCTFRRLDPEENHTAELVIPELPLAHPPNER
protocol description: HTRF Assay (PD-1/PD-L1 interaction)
protocol conditions: PD-L1 His 6 nM, PD-1 Fc 6 nM
metric: IC50 (nM)

>>> numeric_value("COc1nc(-c2cccc(-c3cccc(-c4cc5c(=O)n(C)c(CNCCCF)nn5c4)c3Cl)c2Cl)ccc1CNC[C@@H]1CCC(=O)N1")
52
>>> numeric_value("COc1nc(-c2cccc(-c3cccc(-c4ccn5c(CNC[C@@H]6CCC(=O)N6)cnc5c4)c3Cl)c2Cl)ccc1CNC[C@@H]1CCC(=O)N1")
24
>>> numeric_value("Cc1c(-c2ccn3c(=O)c(CNC[C@@H]4CCC(=O)N4)cnc3c2)cccc1-c1cccc(-c2ccc3c(c2)CCC3NC[C@@H]2CCC(=O)N2)c1Cl (stereo partly drawn)")
3.4

* * *

assay target: PD-L1 His protein / PD-1 Fc protein (Homo sapiens)
protocol description: HTRF Assay (PD-1/PD-L1 interaction)
protocol conditions: PD-L1 His 6 nM, PD-1 Fc 6 nM
pIC50: −log10 of the molar value.
// map pIC50 to label using low: < 7; middle: ≥ 7 and < 9; high: ≥ 9

>>> class_name("COC(=O)C1CN(Cc2cnc3cc(-c4cccc(-c5cccc(-c6ccc(CNC[C@@H]7CCC(=O)N7)c(OC)n6)c5Cl)c4Cl)ccn3c2=O)C1")
"middle"
>>> class_name("COc1nc(-c2cccc(-c3cccc(-c4ccn5c(=O)c(CNCC(C)(C)OC)cnc5c4)c3Cl)c2Cl)ccc1CNC[C@@H]1CCC(=O)N1")
"middle"
>>> class_name("COc1nc(-c2cccc(-c3cccc(-c4ccn5c(=O)c(CN6CCC(CO)(CO)C6)cnc5c4)c3Cl)c2Cl)ccc1CNC[C@@H]1CCC(=O)N1")
"high"
>>> class_name("COc1nc(-c2cccc(-c3cccc(-c4ccn5c(=O)c(CN6CC(C(=O)O)C6)cnc5c4)c3Cl)c2Cl)ccc1CN1CC(CO)C1")
"high"
>>> class_name("COc1nc(-c2cccc(-c3cccc(-c4ccc5c(CNC[C@@H]6CCC(=O)N6)cn(C)c5n4)c3Cl)c2Cl)ccc1CNC[C@@H]1CCC(=O)N1")
"low"
>>> class_name("COc1nc(-c2cccc(-c3cccc(-c4ccc5c(OC)c(CNC[C@@H]6CCC(=O)N6)cc(Cl)c5n4)c3Cl)c2Cl)ccc1CNC[C@@H]1CCC(=O)N1")
"middle"
>>> class_name("COc1nc(-c2cccc(-c3cccc(-c4cc5c(=O)n(C)c(CNCCC6CCC(=O)N6)nn5c4)c3Cl)c2Cl)ccc1CNC[C@@H]1CCC(=O)N1 (stereo partly drawn)")
"low"
>>> class_name("COc1nc(-c2cccc(-c3cccc(-c4ccc5nc(CNC[C@@H]6CCC(=O)N6)cn5n4)c3Cl)c2Cl)ccc1CNC[C@@H]1CCC(=O)N1")
"high"
>>> class_name("COc1nc(-c2cccc(-c3cccc(-c4ccn5c(=O)c(CNCCO)cnc5c4)c3Cl)c2Cl)ccc1CNC[C@@H]1CCC(=O)N1")
"middle"
>>> class_name("COc1nc(-c2cccc(-c3cccc(-c4ccc5nc(CN(C)CCO)cn5n4)c3Cl)c2Cl)ccc1CN(C)CCO")
"middle"
>>> class_name("COc1nc(-c2cccc(-c3cccc(-c4cc5c(=O)n(C)c(CN6CC7(COC7)C6)nn5c4)c3Cl)c2Cl)ccc1CNC[C@@H]1CCC(=O)N1")
"middle"
>>> class_name("COc1nc(-c2cccc(-c3cccc(-c4ccn5c(=O)c(CNC6CCN(C(C)=O)CC6)cnc5c4)c3Cl)c2Cl)ccc1CNC[C@@H]1CCC(=O)N1")
"high"
>>> class_name("CNC(=O)CNCc1cnc2cc(-c3cccc(-c4cccc(-c5ccc(CNC[C@@H]6CCC(=O)N6)c(OC)n5)c4Cl)c3Cl)ccn2c1=O")
"high"
>>> class_name("COc1nc(-c2cccc(-c3cccc(-c4cnc(NCCNC(C)=O)c(OC)n4)c3Cl)c2Cl)cnc1NCCNC(C)=O")
"middle"
>>> class_name("COc1nc(-c2cccc(-c3cccc(-c4ccn5c(=O)c(C)c(CNCCO)nc5c4)c3Cl)c2Cl)ccc1CNC[C@@H]1CCC(=O)N1")
"middle"
>>> class_name("COc1nc(-c2cccc(-c3cccc(-c4cc5ncc(CNCCO)cc5cn4)c3Cl)c2Cl)ccc1CNC[C@@H]1CCC(=O)N1")
"high"
>>> class_name("COc1nc(-c2cccc(-c3cccc(-c4ccn5c(=O)c(CNC[C@H](C)O)cnc5c4)c3Cl)c2Cl)cc(F)c1CNC[C@@H]1CCC(=O)N1")
"high"
>>> class_name("O=C1CC[C@@H](CNCc2cnc3cc(-c4cccc(-c5cccc(-c6ccc7c(n6)OCCNC7)c5Cl)c4Cl)ccn3c2=O)N1")
"low"
>>> class_name("COc1nc(-c2cccc(-c3cccc(-c4cc(F)c5c(c4)CCN(CCNC[C@@H]4CCC(=O)N4)C5=O)c3Cl)c2Cl)ccc1CNC[C@@H]1CCC(=O)N1")
"low"
>>> class_name("COc1nc(-c2cccc(-c3cccc(-c4ccn5c(=O)c(CNC[C@@H]6CCC(=O)N6)ccc5c4)c3C)c2Cl)cnc1CNC[C@@H]1CCC(=O)N1")
"middle"
>>> class_name("COc1nc(-c2cccc(-c3cccc(-c4cnc5oc(CNC[C@@H]6CCC(=O)N6)cc5c4)c3Cl)c2Cl)ccc1CNC[C@@H]1CCC(=O)N1")
"low"
>>> class_name("COc1nc(-c2cccc(-c3cccc(-c4cc5c(=O)n(C)c(CNC[C@@H](O)CC(=O)N(C)C)nn5c4)c3Cl)c2Cl)ccc1CNC[C@@H]1CCC(=O)N1")
"middle"

* * *

assay target: PD-L1 His protein / PD-1 Fc protein (Homo sapiens, UniProt Q9NZQ7)
protocol description: HTRF Assay (PD-1/PD-L1 interaction)
protocol conditions: PD-L1 His 6 nM, PD-1 Fc 6 nM
Measured IC50, listed per entry for reference.
metric: IC50

>>> result("COc1nc(-c2cccc(-c3cccc(-c4ccn5c(=O)c6c(nc5c4)N(C)CCNC6)c3Cl)c2Cl)ccc1CNC[C@@H]1CCC(=O)N1")
"6.5 nM"
>>> result("COc1nc(-c2cccc(-c3cccc(-c4ccn5c(=O)c(CNCCNC(C)=O)cnc5c4)c3Cl)c2Cl)ccc1CNC[C@@H]1CCC(=O)N1")
"8.3 nM"
>>> result("COc1nc(-c2cccc(-c3cccc(-c4ccn5c(=O)c(CNCCNC(C)=O)cnc5c4)c3Cl)c2Cl)ccc1CNCCNC(C)=O")
"1.9 nM"
>>> result("COc1nc(-c2cccc(-c3cccc(-c4cc5c(=O)n(C)c(CNCCO)nn5c4)c3Cl)c2Cl)cc(Cl)c1CNC[C@@H]1CCC(=O)N1")
"0.7 nM"
>>> result("CN1CCC(NCCO)c2ccc(-c3cccc(-c4cccc(-c5ccc6c(n5)N(C)CCC6NCCO)c4Cl)c3Cl)nc21 (mixture of isomers)")
"4.8 nM"
>>> result("COc1nc(-c2cccc(-c3cccc(-c4cc5c(=O)n(C)c(CN6CC(C)(O)C6)nn5c4)c3Cl)c2Cl)cc(Cl)c1CNC[C@@H]1CCC(=O)N1")
"0.6 nM"

* * *

assay target: PD-L1 His protein / PD-1 Fc protein (Homo sapiens, UniProt Q9NZQ7)
protocol description: HTRF Assay (PD-1/PD-L1 interaction)
Format: binding
protocol conditions: PD-L1 His 6 nM, PD-1 Fc 6 nM
pIC50: −log10 of the molar value.
metric: pIC50

>>> numeric_value("COc1nc(-c2cccc(-c3cccc(-c4ccc5c(c4)cc4n5CCNC4)c3Cl)c2Cl)ccc1CNC[C@@H]1CCC(=O)N1")
7.89
>>> numeric_value("COc1nc(-c2cccc(-c3cccc(-c4ccc5c(OC)c(CNC[C@@H]6CCC(=O)N6)cc(Cl)c5n4)c3Cl)c2Cl)cc(F)c1CNC[C@@H]1CCC(=O)N1")
7.55
>>> numeric_value("COc1nc(-c2cccc(-c3cccc(-c4ccn5c(=O)c(CN6CC[C@H](C(=O)O)C6)cnc5c4)c3Cl)c2Cl)ccc1CNCCO")
9.52
>>> numeric_value("COc1nc(-c2cccc(-c3cccc(-c4ccn5c(=O)c(CNC[C@@H]6CCC(=O)N6)cnc5c4)c3Cl)c2Cl)ccc1CNC1(C(=O)O)CC1")
8.60
>>> numeric_value("Cc1c(COc2cc(OCc3cncc(C(N)=O)c3)c(CNCCO)cc2Cl)cccc1-c1cccc(-c2ccn3c(=O)c(CNCCO)cnc3c2)c1")
8.55
>>> numeric_value("Cc1c(-c2ccn3c(=O)c(CNC[C@@H]4CCC(=O)N4)cnc3c2)cccc1-c1cccc(-c2ccc(CNC[C@@H]3CCC(=O)N3)cc2)c1Cl")
8.25

* * *

assay target: PD-L1 His protein / PD-1 Fc protein (Homo sapiens, UniProt Q9NZQ7)
protocol description: HTRF Assay (PD-1/PD-L1 interaction)
protocol conditions: PD-L1 His 6 nM, PD-1 Fc 6 nM
Sorting guide: entries reporting IC50 beneath 7 nM go in the Satisfied pile, the rest go in the Not satisfied pile.

>>> class_name("COc1nc(-c2cccc(-c3cccc(-c4ccn5c(=O)c(CNCC6(C)COC6)cnc5c4)c3Cl)c2Cl)ccc1CNC[C@@H]1CCC(=O)N1")
"Satisfied"
>>> class_name("COC(=O)C[C@H](O)CNCc1ccc(-c2cccc(-c3cccc(-c4ccn5c(=O)c(CNC[C@@H](O)CC(=O)OC)cnc5c4)c3Cl)c2Cl)nc1OC")
"Not satisfied"
>>> class_name("COc1nc(-c2cccc(-c3cccc(-c4ccn5c(=O)c(CN6CC[C@H](C(=O)O)C6)cnc5c4)c3Cl)c2Cl)ccc1CNC[C@@H]1CCC(=O)N1")
"Satisfied"
>>> class_name("COc1nc(-c2cccc(-c3cccc(-c4cn5cc(CNCCO)ccc5n4)c3Cl)c2Cl)ccc1CNCCO")
"Satisfied"
>>> class_name("Cc1c(COc2cc(OCc3cncc(C#N)c3)c(CNCCO)cc2Cl)cccc1-c1cccc(-n2cnc3cc(CNCCO)ccc3c2=O)c1C")
"Not satisfied"
>>> class_name("COc1nc(-c2cccc(-c3cccc(-c4ccc5nc(CNC[C@@H]6CCC(=O)N6)oc5c4)c3Cl)c2Cl)ccc1CNC[C@@H]1CCC(=O)N1")
"Not satisfied"

Recorded values, source patent US20230143612A1.
